Values compiled from PubChem BioAssay (NCI).

Tested on: HCT-15 colon
TEST: NCI tumour cell line growth inhibition, 48 h; in the data active = GI50 below about 0.43 µM; inactive = the rest
Tick one outcome: active, inactive

| MOLECULE | QUALITATIVE_LABEL |
| --- | --- |
| O=C1c2cccnc2-c2nc(-c3ccncc3)cc3c2c1nc1ccccc13 | inactive |
| CN(C)Cc1c[nH]c2c(NCCN)c3c(c(NCCN)c12)C(=O)c1ccccc1C3=O | inactive |
| COc1ccc(/C=C2/CCc3cc4ccc(OC)cc4[o+]c32)c(O)c1 | inactive |
| Cn1c2ccccc2c2c(=O)c3ccccc3[nH]c21 | inactive |
| CC1CCCc2c1nn(C(=O)/C=C(\N)c1ccccc1)c2N (stereo unspecified) | inactive |
| Cn1c([N+](=O)[O-])cnc1/C=C1\Oc2cc(Cl)ccc2C1=O | active |

Data request: Answer briefly: the call reported for c1ccc2nc3c(cc4ccccn43)nc2c1 in this assay.
Data returned: inactive

Data request: Hello, I am checking results. What call was entered for COc1ccc2cc(-c3ccc(-c4ccc(C(=N)N)s4)s3)ccc2c1 ?
Data returned: inactive

Data request: Could you check what this test reported for CCOC1Oc2ccccc2-c2oc(=O)c(Sc3ccc(C)cc3)cc21 (stereo unspecified) ?
Data returned: inactive

Data request: Which result was noted for this molecule in the test: CCSc1nc(N)c2cn[nH]c2n1
Data returned: inactive

Data request: What outcome does the record of this test show for NC(=O)c1cccc(Nc2nccc(Nc3cccc(F)c3)n2)c1 ?
Data returned: inactive

---

System: HCT-15 colon
TEST: NCI tumour cell line growth inhibition, 48 h; in the data active means GI50 below about 0.43 µM; inactive means the rest
Give one outcome, nothing more. List: active, inactive

Here are 2 compounds together with their reported answers.
| LINE_NOTATION | QUALITATIVE_LABEL |
| --- | --- |
| Cn1cc(-c2csc(-c3cn(C)c4ccccc34)n2)c2cnccc21 | inactive |
| CC(=O)[CH-]C(C)=O.[CH2-]C.[CH2-]C.[Tl+3] | inactive |

Data request: How did this test come out for CNC(=O)c1cc2c(Oc3ccc(NC(=O)C4(C(=O)Nc5ccc(F)cc5)CC4)cc3)ccnc2cc1OC ?
Data returned: inactive

Data request: What did this assay record as the result for CCCCCCCCCCN=C(c1ccc(N(C)C)cc1)c1ccc(N(C)C)cc1 ?
Data returned: active

Data request: Kindly provide the recorded test outcome for the following compound: NC(=O)C1(N2CCCCC2)CCN(CCCC(=O)c2ccc(F)cc2)CC1
Data returned: inactive

Data request: What outcome does the record of this test show for COc1cc2c(cc1-c1c(C)noc1C)cc(C)c(=O)n2Cc1ccccn1 ?
Data returned: inactive

---

Test system: OVCAR-5 ovarian
TEST: NCI tumour cell line growth inhibition, 48 h
In this section we review reported TGI values for a set of molecules.

Here is how some molecules turned out for TGI.
| MOLECULE | TARGET_OR_TEST_SYSTEM | MEASUREMENT_KIND | RESULT |
| --- | --- | --- | --- |
| CCOc1cc(C2CC(c3ccc(NS(=O)(=O)c4cc([N+](=O)[O-])ccc4C)cc3)=NN2C(=O)c2ccccc2)ccc1O (stereo unspecified) | OVCAR-5 ovarian | TGI | > 100 µM |
| CCOC(=O)NC(=S)NN(C)C1=NCC(C)(C)S1 | OVCAR-5 ovarian | TGI | > 100 µM |
| OC(c1ccc(Br)cc1)(c1cccs1)C1CC1 (stereo unspecified) | OVCAR-5 ovarian | TGI | 70.5 µM |

Entry CC/C(=N\NS(=O)(=O)c1ccccc1)c1ccccc1 — recorded TGI = > 100 µM

Value of measured TGI for the entry O=c1c2cc3c(cc2[nH]c2ncccc12)OCO3 : > 10 µM

In plain terms, NC(=O)c1cccc(Nc2nccc(Nc3cccc(F)c3)n2)c1 has a documented TGI of > 25 µM

---

Test system: SK-MEL-28 melanoma
TEST: NCI tumour cell line growth inhibition, 48 h
In this section we review reported log10 of TGI values for a set of compounds.
Friendly reminder: values = log10 of TGI, unit µM.

| COMPOUND | TARGET_OR_TEST_SYSTEM | log10 of TGI |
| --- | --- | --- |
| O=C(N=Nc1cc(Cl)ccc1Cl)NNc1cc(Cl)ccc1Cl | SK-MEL-28 melanoma | 1.79 |

Per the reported SK-MEL-28 melanoma data, CCOC(=O)/C=C(\C)c1ccc(C)cc1C has log10 of TGI of 1.71

Form: item O=C1c2cc3c(cc2CC1Br)CCC3 (stereo not drawn) ; test system SK-MEL-28 melanoma; log10 of TGI: 0.93

Measured log10 of TGI for this entry CN(C)CCCN1C(=S)N(CCCN(C)C)c2c3cc(O)ccc3nc3c([N+](=O)[O-])ccc1c23 on SK-MEL-28 melanoma: 1.03

Observed log10 of TGI, SK-MEL-28 melanoma, CC1(C)[C@@H]2CC[C@@]1(C)[C@@H]1O[C@@H](O[C@@H](CN)c3cc(Cl)c(OCc4ccccc4)c(OCc4ccccc4)c3)C[C@H]21 : -0.42

Field log10 of TGI (SK-MEL-28 melanoma), entry CC(C)/C(Cl)=N\OC(=O)Nc1ccc(C#N)cc1 : 1.40

---

Parameter: TGI. Scope: all listed entries.
Test system: IGROV1 ovarian
TEST: NCI tumour cell line growth inhibition, 48 h

Examples with their reported TGI follow.
| MOLECULE | RESULT |
| --- | --- |
| CCOC(=O)/C=C(\C)c1ccc(C)cc1C | > 100 µM |
| CCOC(=O)c1c(-c2ccc(OC)cc2)c(C#N)c(=S)n(C2OC(COC(C)=O)C(OC(C)=O)C(OC(C)=O)C2OC(C)=O)c1C (stereo not given) | > 100 µM |
| COc1ccc2cc(-c3ccc(-c4ccc(C(=N)N)s4)s3)ccc2c1 | 5.45 µM |
| CCOC(=O)/C(=C/c1cccc(OC)c1)N(CC)CC | > 100 µM |

molecule C=CCO/N=C/c1cc(NC(=S)c2ccoc2C)ccc1Cl , TGI observed: 32.2 µM

Value of TGI reported for the molecule CC(=O)OCC1OC(n2cc([N+](=O)[O-])c(=O)[nH]c2=O)C(OC(C)=O)C(OC(C)=O)C1OC(C)=O (stereo not given) is > 100 µM

Given item N=S(c1ccccc1)c1ccccc1[N+](=O)[O-] (stereo not given) , the value recorded as its TGI is 32.9 µM

The value of TGI measured for the molecule CSc1cc(Cl)c(C)cc1S(=O)(=O)NC(=O)NNc1ccc(Cl)cc1 turned out to be > 100 µM

# TGI of Cc1nn(C(=O)Cc2ccccc2)c2c1C(c1ccc(O)cc1)SC(N)=N2 (stereo not given) = > 100 µM

Item: CCCCCCCCCCCCCC(=O)OCC1OC(=O)CC1O (stereo not given) | TGI: > 100 µM

---

Measured TGI by item
Tested on: NCI-H23 lung
TEST: NCI tumour cell line growth inhibition, 48 h
# number only, unit µM dropped from output

// worked examples, TGI included
| COMPOUND | MEASUREMENT_KIND | RESULT_NUMBER |
| --- | --- | --- |
| O=c1oc(-c2ccc(O)c(O)c2)cc2cccc(O)c12 | TGI | 53.6 |
| CC(=O)N[C@H](C(=O)N[C@@H](CCCNC(=N)N)C(=O)N[C@@H](CCCCN)C(=O)N[C@@H](CCCNC(=N)N)C(=O)N[C@]1(C)CCCCCC/C=C\CCC[C@@](C)(C(=O)N[C@@H](CCCNC(=N)N)C(=O)N[C@@H](CCC(=O)O)C(=O)N[C@@H](CC(C)C)C(=O)N[C@H](C(=O)N[C@@H](CCC(=O)O)C(N)=O)C(C)C)NC(=O)[C@H](CCC(N)=O)NC(=O)[C@H](CC(C)C)NC(=O)[C@H](CC(C)C)NC(=O)[C@H](CCCNC(=N)N)NC(=O)[C@H](CCCNC(=N)N)NC(=O)[C@H](CC(C)C)NC1=O)C(C)C | TGI | 30.1 |
| CN(C)CCCN1C(=S)N(CCCN(C)C)c2c3cc(O)ccc3nc3c([N+](=O)[O-])ccc1c23 | TGI | 17.1 |
| COc1nc(C#CCC(C)O)nc(OC)n1 (centres undefined) | TGI | 43.4 |
| COc1ccc(-c2nnc(N3CCN(C(=O)CN4CCN(c5ccc(OC)cc5)CC4)CC3)nc2-c2ccc(OC)cc2)cc1 | TGI | 33.4 |

// next entry
The reported TGI value, NCI-H23 lung, for N#C/C(=C\c1cc(Br)c(O)c(Br)c1)c1cccnc1 reads 52.8

---

Test system: HOP-92 NSCLC
TEST: NCI tumour cell line growth inhibition, 48 h
MEASUREMENT_KIND: TGI

| MOLECULE | RESULT |
| --- | --- |
| COc1ccc(C(OCC2OC(n3cc(C)c(=O)[nH]c3=O)CC2n2cc(Cn3cc(F)c(=O)[nH]c3=O)nn2)(c2ccccc2)c2ccccc2)cc1 (stereo not given) | 19.5 µM |
| CC1=C(C(=O)Nc2ccccc2C)C(/C=C/c2ccccc2)C(C(=O)Nc2ccccc2C)=C(C)N1 | > 100 µM |
| O=C(N=Nc1cc(Cl)ccc1Cl)NNc1cc(Cl)ccc1Cl | 32.9 µM |
| Cc1cc(Nc2nc(SCc3ccc(C(=O)Nc4ccc(F)cc4N)cc3)nn3cccc23)n[nH]1 | 24.3 µM |
| COC(=O)c1c2c(cc3c1CC1(C3)Cc3cc4c(c(C(=O)OC)c3C1)CCCC4)CCCC2 | > 100 µM |

Measured TGI of CC(=O)OC1COC(n2c(=S)n(-c3ccccc3)c(=O)c3cc(Br)ccc32)C(OC(C)=O)C1OC(C)=O (stereo not given) : 55.5 µM

According to the records, this molecule CC(=O)[CH-]C(C)=O.[CH2-]C.[CH2-]C.[Tl+3] displays TGI of > 100 µM
